# Test system: Plasmodium berghei
# PROCEDURE_DETAILS: Screen against P. berghei liver stage (PbLuc), transformed with Luciferase, at 10uM
# Assay type: functional, HepG2
# CONDITION_SUMMARY: tested at 10 uM
Among all 69,000 compounds or so, about 8,600 (12%) showed an effect of 50% or more. The list comes from a sample in which strong results are over-represented; it also holds close analogues and randomly drawn compounds.
REPORTED_PROPERTY: INHIBITION (%)
State the answer as a number, implicitly in %.

COMPOUND	INHIBITION (%)
Cc1cc(C)c2c(c1)NC(=O)C2CC(=O)O (stereo not given)	27.6

The compound O=C1[C@H]2CN(c3ncccn3)C[C@H]2CN1CC1CC1 showed INHIBITION equal to 64.2

The compound O=C(c1cccnc1)N1C[C@H]2CC[C@@H](C1)N(Cc1ccc(F)cc1Cl)C2 showed INHIBITION equal to -30

The compound Cc1ccc(C)c2c1NC(=O)C2CC(=O)O (stereo not given) showed INHIBITION equal to -95.1

The compound O=C1[C@H]2CN(S(=O)(=O)C3CC3)C[C@H]2CN1CC1CC1 showed INHIBITION equal to 3.69

The compound CCS(=O)(=O)N1C[C@H]2CN(CC3CC3)C(=O)[C@H]2C1 showed INHIBITION equal to -12.2

The compound CC(C)CN1C[C@@H]2CN(c3cnccn3)C[C@@H]2C1=O showed INHIBITION equal to 21.3

The compound CS(=O)(=O)N1C[C@H]2CN(CC3CC3)C(=O)[C@H]2C1 showed INHIBITION equal to 85.2

The compound O=C(c1c[nH]nn1)N1CCN(C(c2ccccc2)C(F)(F)F)CC1 (stereo not given) showed INHIBITION equal to -10.9

The compound O=C1[C@H]2CN(c3cnccn3)C[C@H]2CN1CC1CC1 showed INHIBITION equal to 51.2

====

# Test system: Plasmodium berghei
# PROCEDURE_DETAILS: Screen against P. berghei liver stage (PbLuc), transformed with Luciferase, at 10uM
# Type: functional, HepG2
# CONDITION_SUMMARY: tested at 10 uM
The whole screen tested about 69,000 compounds, of which about 8,600 (12%) showed an effect of 50% or more. The sample as a whole holds a higher share of strong results than the screen did.
Some molecules, each annotated with its measured INHIBITION.
State the answer as a number, implicitly in %.

Solved cases (5 shown):
MOLECULE	REPORTED_PROPERTY	VALUE_OBSERVED
COc1ccc(OC)c(C(O)CN2CCN(c3cccc(C)c3)CC2)c1 (configuration not stated)	INHIBITION	34.5
COCCC(=O)N1CCn2cc(CN3CCN(C)CC3)nc2C1	INHIBITION	-17.2
Cc1cc(C)n(CC2CCCN2CC(=O)Nc2cc(C(C)C)no2)n1 (configuration not stated)	INHIBITION	-6.44
COCCN(C)c1ccc(NCc2cccnc2)nc1	INHIBITION	15.1
COc1cccc(-n2c(C)cc(C(=O)NCCCC(N)=O)c2C)c1	INHIBITION	-5.25

The molecule CCn1cc(CNc2ccc(Br)c(OC)c2)cn1 showed INHIBITION equal to 32

The molecule NC(=O)C1(Cc2ccccc2-c2cncnc2)CCCNC1 (configuration not stated) showed INHIBITION equal to 12.915

The molecule O=C(CSc1ccc(F)cc1F)NS(=O)(=O)c1ccc2c(c1)OCCO2 showed INHIBITION equal to -16.45

The molecule COCCOc1ccc(NC(=O)N(C)Cc2ccsc2)cn1 showed INHIBITION equal to 31.8

The molecule O=c1[nH]nc(C2CC2)n1-c1cccc(Cl)c1 showed INHIBITION equal to -21.7

The molecule COCCN(C)c1ccc(NCc2ccsc2)nc1 showed INHIBITION equal to 80.8

The molecule Cc1ccc(N2CCCC(NCCS(C)(=O)=O)C2)nn1 (configuration not stated) showed INHIBITION equal to 64.4
